Cited source for all entries: PubChem BioAssay AID504329

Experiment: H1N1 influenza NS1A inhibitors, functional cell based assay (AID 504329)
Conditions: percent inhibition, at 12.5 µM, active compounds read high
About 1,000 (0.29%) of roughly 340,000 compounds were called active. Only a sample is shown. Measured potencies and affinities stand elsewhere.
// values below are reported inhibition
attribute_measured: inhibition (%)

INSERT INTO measurements (compound, attribute_measured, unit_spec, readout_value) VALUES
  ('CCCCn1c(N)c(N(C(=O)CSc2nnnn2-c2ccccc2C)C2CCCC2)c(=O)[nH]c1=O', 'inhibition', '%', -10.4),
  ('CCN1C(=C2C(=O)c3ccccc3C2=O)C=Cc2ccccc21', 'inhibition', '%', -0.12),
  ('Cc1c(F)cccc1NC(=O)CCC(=O)O', 'inhibition', '%', 22.1),
  ('CCc1nn(CC(=O)NC2CCN(Cc3ccccc3)CC2)c(=O)c2cc3cc(F)ccc3n12', 'inhibition', '%', 0.23),
  ('COC(=O)CCC(=O)N(CCN(Cc1ccccc1)C(=O)CCC(=O)OC)Cc1ccccc1', 'inhibition', '%', 8.88),
  ('O=C1CC(N2C(=O)/C(=C/C=C/c3ccccc3)SC2=S)C(=O)N1c1ccccc1 (configuration not stated)', 'inhibition', '%', 7.39),
  ('COc1cc2c3c(c1)-c1c(sn(-c4cc(OC)ccc4OC)c1=S)C(C)(C)N3C(=O)C2=O', 'inhibition', '%', 7.42),
  ('O=C(CCCCCN1C(=O)c2ccccc2C1=O)Nc1ccc(F)cc1', 'inhibition', '%', 15.1),
  ('Cc1cc(C)nc(Nc2ccccc2Cl)n1', 'inhibition', '%', -3.84),
  ('Cc1[nH]c(=O)[nH]c(=O)c1CSCC(=O)OCC(=O)Nc1ccccn1', 'inhibition', '%', -14.1),
  ('CC1NC(=O)NC1CCCCC(=O)O (configuration not stated)', 'inhibition', '%', 8.09),
  ('COc1ccc(S(=O)(=O)Nc2ccc3c(c2)N(C(C)=O)CCC3)cc1OC', 'inhibition', '%', 4.6),
  ('CCN(C[C@H]1N[C@@](CC)(C(=O)OC)[C@H]2C(=O)N(Cc3ccccc3)C(=O)[C@@H]12)C(=O)C1CCCCC1', 'inhibition', '%', -2.32),
  ('Cc1cccc(OC(=O)n2c(=S)oc3cc(Cl)ccc32)c1', 'inhibition', '%', 1.29),
  ('COC(=O)CC1=NN(c2ccccc2)C(=O)/C1=C\c1ccc(OC)cc1', 'inhibition', '%', 3.36),
  ('CC(C)Oc1ccc(S(=O)(=O)N2CCCCC2)cc1NC(=O)CN1C(=O)NC(C)(C2CC2)C1=O (configuration not stated)', 'inhibition', '%', -3.52),
  ('COCCN1C(=O)/C(=C2/C(=O)N(CC(=O)Nc3ccccc3Cl)c3ccccc32)SC1=S', 'inhibition', '%', 1.06),
  ('CCN1C(=O)/C(=C2\SC(=S)N(NC(=O)c3ccccc3O)C2=O)c2ccccc21', 'inhibition', '%', -6.27),
  ('CCc1nnc(NC(=O)c2cc(-c3ccncc3)nc3ccccc23)s1', 'inhibition', '%', -12.1),
  ('O=C(N/N=C\C=C\c1ccc2c(c1)OCO2)C1COc2ccccc2O1 (configuration not stated)', 'inhibition', '%', -2.03),
  ('CN(C)N1C(N)=C(C#N)C(c2cccnc2)C2=C1CCCC2=O (configuration not stated)', 'inhibition', '%', 0.98),
  ('N/C(=N\N=C\c1ccc2c(c1)OCO2)SC1CC(=O)N(c2ccc(C(=O)O)cc2)C1=O (configuration not stated)', 'inhibition', '%', 1.14),
  ('CCOC(=O)CCCCC(=O)c1[nH]c(=O)[nH]c1CSCCO', 'inhibition', '%', 12.6),
  ('COc1ccc(C(=O)N/N=C/c2ccc(OC)c(COc3ccccc3)c2)cc1', 'inhibition', '%', -10.8),
  ('NC(=S)N=Nc1c(O)[nH]c2ccccc12', 'inhibition', '%', 14.1),
  ('COc1ccccc1C(=O)N/C(=C\c1ccc(Br)cc1)C(=O)NCCO', 'inhibition', '%', -1.68),
  ('Cc1ccc(N2C(=O)NC(=O)/C(=C\C=C\c3ccco3)C2=O)cc1', 'inhibition', '%', -8.27),
  ('O=C(COc1ncnc2ccccc12)NC1CCCCC1', 'inhibition', '%', 9.63),
  ('O=c1[nH]c(-c2ccccn2)cc2ccccc12', 'inhibition', '%', -3.67),
  ('Nc1ccc(NC(=S)Nc2ccccc2)cc1', 'inhibition', '%', 8.73),
  ('COc1ccc(C(=O)N/N=C/c2ccc(OC)c(COc3ccc(F)cc3)c2)cc1', 'inhibition', '%', -7.91),
  ('CC(=O)Nc1ccc(N2N=C(C)C(N=Nc3ccccc3)C2=O)cc1 (configuration not stated)', 'inhibition', '%', 22.2),
  ('CCCCCOc1ccc(C(=O)NCCC(=O)NCCCC(=O)OCC)cc1', 'inhibition', '%', -5.18),
  ('COc1ccc(CC(=O)Nc2cc(S(=O)(=O)N3CCOCC3)ccc2N2CCCC2)cc1OC', 'inhibition', '%', 2.03),
  ('CN1C(=O)/C(=C2/C=Cc3ccccc3N2CCCS(=O)(=O)O)SC1=S', 'inhibition', '%', 8.55),
  ('O=C(O)c1ccc(N2C(=O)/C(=C/C=C/c3ccccc3)SC2=S)cc1', 'inhibition', '%', -0.2),
  ('CCOC(=O)c1ccccc1NC(=O)CN(c1ccccc1OCC)S(C)(=O)=O', 'inhibition', '%', 0.08);
